The measured values listed here are drawn from ChEMBL document CHEMBL3301472.

- ASSAY NAME: MMV: MTT Cytotoxicity Assay Day 7 pi of Assay #6 (compound washed out Day 1 pi), U87-CD4-CCR5 cells, % cell death @ 5mM compound
- Assay type: toxicity, cell-based
- CONDITION CONTEXT: human, u87-cd4-ccr5, 5000 µM
RESULT TYPE: % Cell Death

Here's what some known entries look like.
INSERT INTO results (compound, reading) VALUES
  ('CCOC(=O)c1cnc2ccc(OC)cc2c1NCc1ccccc1', -10),
  ('Cc1cc(Nc2ccc3ccccc3c2)n2ncnc2n1', 12),
  ('CCOC(=O)c1c(NC(=O)c2ccccc2)sc2c(O)c(CN(CC)CC)ccc12', -2);

The compound identified as "COCCn1c(C)nc2ccccc2c1=O" registered its % Cell Death at -8

The compound identified as CCOc1cc2c(cc1OCC)C(c1cc(OC)c(O)cc1Cl)NCC2 (stereo not given) registered its % Cell Death at 7

The compound identified as "O=C(Nc1cccc(C2=NCCN2)c1)Nc1cccc(C2=NCCN2)c1" registered its % Cell Death at -6

The compound identified as "COc1ccc(-c2nc3cc(Cc4ccc5[nH]c(-c6ccc(OC)cc6)nc5c4)ccc3[nH]2)cc1" registered its % Cell Death at -21

The compound identified as O=C(NCC(c1ccsc1)N1CCCCCC1)c1ccc(C(F)(F)F)cc1 (stereo not given) registered its % Cell Death at 12

The compound identified as "O=C(NC1CCCC1)c1ccc(N2CCC(NCc3cccc(C(F)(F)F)c3)CC2)cc1" registered its % Cell Death at -1

The compound identified as "COc1cccc(-c2nn(C)c3sc(C(=O)NCCN4CCN(c5ccccc5F)CC4)cc23)c1" registered its % Cell Death at 2
